Tested on: U-87-MG (Glioblastoma)
ASSAY COMMENT: combination Emax (second highest fraction inhibited in the dose matrix, 72 h); higher = more inhibition; extreme values may be limits of the assay
ENDPOINT: combination Emax

- MOLECULE: "CC(=O)c1c(C)c2cnc(Nc3ccc(N4CCNCC4)cn3)nc2n(C2CCCC2)c1=O [Palbociclib] + Cn1cnc2c(F)c(Nc3ccc(Br)cc3Cl)c(C(=O)NOCCO)cc21 [Selumetinib] (first compound max 10 µM, 7x7, partner max 10 µM)"
  ENDPOINT: "combination Emax"
  VALUE REPORTED: 0.326
- MOLECULE: "CC1(C)CCC(CN2CCN(c3ccc(C(=O)NS(=O)(=O)c4ccc(NCC5CCOCC5)c([N+](=O)[O-])c4)c(Oc4cnc5[nH]ccc5c4)c3)CC2)=C(c2ccc(Cl)cc2)C1 [Venetoclax] + C[C@@H](Nc1cc(F)cc(F)c1)c1cc(C(=O)N(C)C)cc2c(=O)cc(N3CCOCC3)oc12 [AZD8186] (first compound max 1 µM, 7x7, partner max 3 µM)"
  ENDPOINT: "combination Emax"
  VALUE REPORTED: 0.44
- MOLECULE: "CC(=O)c1c(C)c2cnc(Nc3ccc(N4CCNCC4)cn3)nc2n(C2CCCC2)c1=O [Palbociclib] + CN(CC[C@H](CSC1=CC=CC=C1)NC2=C(C=C(C=C2)S(=O)(=O)NC(=O)C3=CC=C(C=C3)N4CCC(CC4)[C@H](C5=CC=CC=C5C6=CC=C(C=C6)Cl)O)S(=O)(=O)C(F)(F)F)CCO [AZD4320] (first compound max 10 µM, 7x7, partner max 1 µM)"
  ENDPOINT: "combination Emax"
  VALUE REPORTED: 0.312
